tested on: parent elite stiff stalk inbred corn; assay: Postemergence effect of ALS herbicides, glyphosate and glufosinate (fresh weight, visual injury); details: applied two weeks after planting, 200 g/ha (glyphosate 3472 g ae/ha, glufosinate ammonium 1870 g/ha), fresh shoots 2 weeks after treatment, mean of four replications, untreated 76.4 g
// reported Fresh Weight (g) Parent elite stiff stalk inbred per item
Measure name: Fresh Weight (g) Parent elite stiff stalk inbred

CP(=O)(O)CCC(N)C(=O)O (stereo not drawn) [Glufosinate ammonium]	2.4 g
CCOC(=O)c1ccccc1S(=O)(=O)NC(=O)Nc1nc(Cl)cc(OC)n1	10.1 g
CO/N=C(/C)c1cccc(Oc2nc(OC)cc(OC)n2)c1C(=O)OC	7.6 g
CC(C)C1(C)N=C(c2nc3ccccc3cc2C(=O)O)NC1=O (stereo not drawn)	4.4 g
COC(=O)c1cccc(C)c1S(=O)(=O)NC(=O)Nc1nc(OCC(F)(F)F)nc(N(C)C)n1	2.1 g
CCCOc1nn(C(=O)NS(=O)(=O)c2ccccc2C(=O)OC)c(=O)n1C	1.9 g
O=C(O)CNCP(=O)(O)O [Glyphosate, N-phosphonomethylglycine]	1.0 g
COCc1cnc(C2=NC(C)(C(C)C)C(=O)N2)c(C(=O)O)c1 (stereo not drawn)	2.2 g
CCOc1nc(NC)nc(NC(=O)NS(=O)(=O)c2ccccc2C(=O)OC)n1	5.6 g

* * *

test system: heterozygous GAT-HRA corn; assay: Preemergence effect of ALS herbicides (fresh weight, visual injury); settings: 200 g/ha, 4 weeks after treatment, 0% no injury, 100% plant death, mean of four replications
// reported % Visual Injury Heterozygous GAT-HRA per item
Measure name: % Visual Injury Heterozygous GAT-HRA (%)

COc1nc(C)nc(NC(=O)NS(=O)(=O)c2ccccc2CCC(F)(F)F)n1	9
COC(=O)c1sccc1S(=O)(=O)NC(=O)Nc1nc(C)nc(OC)n1	3
CCOc1nc(NC)nc(NC(=O)NS(=O)(=O)c2ccccc2C(=O)OC)n1	88
CCOC(=O)c1ccccc1S(=O)(=O)NC(=O)Nc1nc(Cl)cc(OC)n1	10
COC(=O)c1ccccc1S(=O)(=O)NC(=O)Nc1nc(C)cc(C)n1	6
COc1nc(C)nc(NC(=O)NS(=O)(=O)c2ccccc2Cl)n1	33
COc1cc(OC)nc(NC(=O)NS(=O)(=O)c2ncccc2C(=O)N(C)C)n1	0
COC(=O)c1c(Cl)nn(C)c1S(=O)(=O)NC(=O)Nc1nc(OC)cc(OC)n1	15
COC(=O)c1ccccc1S(=O)(=O)NC(=O)Nc1nc(C)nc(OC)n1	0
CCS(=O)(=O)c1cccnc1S(=O)(=O)NC(=O)Nc1nc(OC)cc(OC)n1	0

* * *

tested on: parent elite stiff stalk inbred corn; test: Preemergence effect of ALS herbicides (fresh weight, visual injury); conditions: 200 g/ha, fresh shoots 4 weeks after treatment, mean of four replications, untreated 36.7 g
Measure name: Fresh Weight (g) patent elite stiff stalk inbred

COC(=O)c1ccccc1S(=O)(=O)NC(=O)Nc1nc(C)cc(C)n1	0.0
COc1cc(OC)nc(Sc2cccc(Cl)c2C(=O)[O-])n1.[Na+] [Pyrithiobac Na^+, pyrithiobac-sodium]	0.0
COc1cc(OC)nc(NC(=O)NS(=O)(=O)c2ncccc2OCC(F)(F)F)n1	0.0
CCOC(=O)c1ccccc1S(=O)(=O)NC(=O)Nc1nc(Cl)cc(OC)n1	9.3
CO/N=C(/C)c1cccc(Oc2nc(OC)cc(OC)n2)c1C(=O)OC	30.4
COc1cc(OC)nc(NC(=O)NS(=O)(=O)c2ncccc2C(=O)N(C)C)n1	33.6
COC(=O)c1cccc(C)c1S(=O)(=O)NC(=O)Nc1nc(OCC(F)(F)F)nc(N(C)C)n1	26.3
COCc1cnc(C2=NC(C)(C(C)C)C(=O)N2)c(C(=O)O)c1 (centres unmarked)	0.8
CCOc1nc(NC)nc(NC(=O)NS(=O)(=O)c2ccccc2C(=O)OC)n1	1.6
CC(C)C1(C)N=C(c2nc3ccccc3cc2C(=O)O)NC1=O (centres unmarked)	1.5
CCCOc1nn(C(=O)NS(=O)(=O)c2ccccc2C(=O)OC)c(=O)n1C	0.6

* * *

// reported % Visual Injury Patent elite stiff stalk inbred per item
system: parent elite stiff stalk inbred corn; assay: Preemergence effect of ALS herbicides (fresh weight, visual injury); details: 200 g/ha, 4 weeks after treatment, 0% no injury, 100% plant death, mean of four replications
Measure name: % Visual Injury Patent elite stiff stalk inbred (%)

COC(=O)c1cccc(C)c1S(=O)(=O)NC(=O)Nc1nc(OCC(F)(F)F)nc(N(C)C)n1 [Triflusulfuron-methyl]	100
CC(C)C1(C)N=C(c2nc3ccccc3cc2C(=O)O)NC1=O (centres unmarked) [Imazaquin]	99
CCOc1nc(NC)nc(NC(=O)NS(=O)(=O)c2ccccc2C(=O)OC)n1 [Ethametsulfuron-methyl]	100
CCS(=O)(=O)c1cccnc1S(=O)(=O)NC(=O)Nc1nc(OC)cc(OC)n1 [Rimsulfuron]	74
CCOc1ccccc1OS(=O)(=O)NC(=O)Nc1nc(OC)cc(OC)n1 [Ethoxysulfuron]	63
COC(=O)c1sccc1S(=O)(=O)NC(=O)Nc1nc(C)nc(OC)n1 [Thifensulfuron-methyl]	88
COc1nc(C)nc(NC(=O)NS(=O)(=O)c2ccccc2CCC(F)(F)F)n1 [Prosulfuron]	68
COC(=O)c1ccccc1S(=O)(=O)NC(=O)N(C)c1nc(C)nc(OC)n1 [Tribenuron-methyl]	66
COCc1cnc(C2=NC(C)(C(C)C)C(=O)N2)c(C(=O)O)c1 (centres unmarked) [Imazamox]	99
COC(=O)c1c(Cl)nn(C)c1S(=O)(=O)NC(=O)Nc1nc(OC)cc(OC)n1 [Halosulfuron-methyl]	30
COc1cc(OC)nc(NC(=O)NS(=O)(=O)c2cc(NC=O)ccc2C(=O)N(C)C)n1 [Foramsulfuron]	5
COc1nc(C)nc(NC(=O)NS(=O)(=O)c2ccccc2Cl)n1 [Chlorsulfuron]	100
CC(C)C1(C)N=C(c2ncccc2C(=O)O)NC1=O (centres unmarked) [Imazapyr]	99
CCc1cnc(C2=NC(C)(C(C)C)C(=O)N2)c(C(=O)O)c1 (centres unmarked) [Imazethapyr]	69
COc1cc(OC)nc(NC(=O)NS(=O)(=O)c2ncccc2OCC(F)(F)F)n1 [Trifloxysulfuron Na^+]	100
CCOC(=O)c1ccccc1S(=O)(=O)NC(=O)Nc1nc(Cl)cc(OC)n1 [Chlorimuron-ethyl]	100
CCCOc1nn(C(=O)NS(=O)(=O)c2ccccc2C(=O)OC)c(=O)n1C [Propoxycarbazone Na^+]	100

* * *

test system: heterozygous GAT-HRA corn; assay: Preemergence effect of ALS herbicides (fresh weight, visual injury); settings: 200 g/ha, 4 weeks after treatment, 0% no injury, 100% plant death, mean of four replications
Measure name: % Visual Injury Heterozygous GAT-HRA

COc1cc(OC)nc(NC(=O)NS(=O)(=O)c2cc(NC=O)ccc2C(=O)N(C)C)n1	7%
CC(C)C1(C)N=C(c2nc3ccccc3cc2C(=O)O)NC1=O (stereo not shown)	28%
CO/N=C(/C)c1cccc(Oc2nc(OC)cc(OC)n2)c1C(=O)OC	20%
COC(=O)c1ccccc1CS(=O)(=O)NC(=O)Nc1nc(OC)cc(OC)n1	10%

* * *

// reported Fresh Weight (g) Heterozygous GAT-HRA per item
tested on: heterozygous GAT-HRA corn; test: Postemergence effect of ALS herbicides, glyphosate and glufosinate (fresh weight, visual injury); settings: applied two weeks after planting, 200 g/ha (glyphosate 3472 g ae/ha, glufosinate ammonium 1870 g/ha), fresh shoots 2 weeks after treatment, mean of four replications, untreated 98.8 g
Measure name: Fresh Weight (g) Heterozygous GAT-HRA

O=C(O)CNCP(=O)(O)O [Glyphosate, N-phosphonomethylglycine]	97.4
COC(=O)c1cccc(C)c1S(=O)(=O)NC(=O)Nc1nc(OCC(F)(F)F)nc(N(C)C)n1	110.9
CO/N=C(/C)c1cccc(Oc2nc(OC)cc(OC)n2)c1C(=O)OC	95.2
CP(=O)(O)CCC(N)C(=O)O (centres unmarked) [Glufosinate ammonium]	112.3
CCOc1nc(NC)nc(NC(=O)NS(=O)(=O)c2ccccc2C(=O)OC)n1	98.0

* * *

system: parent elite stiff stalk inbred corn; test: Postemergence effect of ALS herbicides, glyphosate and glufosinate (fresh weight, visual injury); conditions: 200 g/ha (glyphosate 3472 g ae/ha, glufosinate ammonium 1870 g/ha), 2 weeks after treatment, 0% no injury, 100% plant death, mean of four replications
Measure name: % Visual Injury Parent elite stiff stalk inbred (%)

CCc1cnc(C2=NC(C)(C(C)C)C(=O)N2)c(C(=O)O)c1 (centres unmarked)	97
COC(=O)c1ccccc1S(=O)(=O)NC(=O)N(C)c1nc(C)nc(OC)n1	100
COC(=O)c1ccccc1S(=O)(=O)NC(=O)Nc1nc(C)nc(OC)n1	100
O=C(O)CNCP(=O)(O)O [Glyphosate, N-phosphonomethylglycine]	100
COc1nc(C)nc(NC(=O)NS(=O)(=O)c2ccccc2CCC(F)(F)F)n1	25
COC(=O)c1sccc1S(=O)(=O)NC(=O)Nc1nc(C)nc(OC)n1	98
CP(=O)(O)CCC(N)C(=O)O (centres unmarked) [Glufosinate ammonium]	99
COc1nn(C(=O)NS(=O)(=O)c2ccccc2OC(F)(F)F)c(=O)n1C	100
COc1cc(OC)nc(NC(=O)NS(=O)(=O)c2ncccc2OCC(F)(F)F)n1	100
COC(=O)c1ccccc1CS(=O)(=O)NC(=O)Nc1nc(OC)cc(OC)n1	93
CCOc1nc(NC)nc(NC(=O)NS(=O)(=O)c2ccccc2C(=O)OC)n1	96
